- Test system: dengue virus type 4
- assay: Activity of dengue virus 4 recombinant NS3 protease expressed in Escherichia coli C41(DE3) by fluorogenic assay
Non-standard residues stand in square brackets, D forms with d. Residues, ends and D or L forms follow the SMILES beside them. Tyr(3-NO2) = N[C@@H](Cc1ccc(O)c([N+](=O)[O-])c1)C(=O)O; 2Abz = Nc1ccccc1C(=O)O
property measured: kcat (s⁻¹)

1. CC(C)[C@H](NC(=O)[C@H](CC(=O)O)NC(=O)[C@H](CC(N)=O)NC(=O)c1ccccc1N)C(=O)N[C@@H](CC(=O)O)C(=O)N[C@@H](Cc1ccc(O)c([N+](=O)[O-])c1)C(N)=O (H-[2Abz]NDVD[Tyr(3-NO2)]-NH2) :: 0.0253
2. NC(=O)C[C@H](NC(=O)[C@H](Cc1cnc[nH]1)NC(=O)c1ccccc1N)C(=O)N[C@@H](CS)C(=O)N[C@@H](CS)C(=O)N[C@@H](Cc1ccc(O)c([N+](=O)[O-])c1)C(N)=O (H-[2Abz]HNCC[Tyr(3-NO2)]-NH2) :: 0.0157

* * *

Each record here notes measured Km.
- System: dengue virus type 2
- assay: Activity of dengue virus 2 recombinant NS3 protease expressed in Escherichia coli C41(DE3) by fluorogenic assay
Non-standard residues stand in square brackets, D forms with d. Residues, ends and D or L forms follow the SMILES beside them. Tyr(3-NO2) = N[C@@H](Cc1ccc(O)c([N+](=O)[O-])c1)C(=O)O; 2Abz = Nc1ccccc1C(=O)O
property measured: Km (µM)

1) C[C@@H](O)[C@H](NC(=O)CNC(=O)CNC(=O)c1ccccc1N)C(=O)N[C@@H](CC(=O)O)C(=O)N[C@@H](Cc1ccc(O)c([N+](=O)[O-])c1)C(N)=O (H-[2Abz]GGTD[Tyr(3-NO2)]-NH2) :: 12.9
2) C[C@H](NC(=O)c1ccccc1N)C(=O)N[C@@H](CC(N)=O)C(=O)NCC(=O)N[C@@H](Cc1cnc[nH]1)C(=O)N[C@@H](Cc1ccc(O)c([N+](=O)[O-])c1)C(N)=O (H-[2Abz]ANGH[Tyr(3-NO2)]-NH2) :: 7.02
3) CC(C)[C@H](NC(=O)[C@@H](NC(=O)CNC(=O)c1ccccc1N)[C@@H](C)O)C(=O)N[C@@H](CC(N)=O)C(=O)N[C@@H](Cc1ccc(O)c([N+](=O)[O-])c1)C(N)=O (H-[2Abz]GTVN[Tyr(3-NO2)]-NH2) :: 6.5
4) CC(C)[C@H](NC(=O)[C@H](C)NC(=O)[C@H](C)NC(=O)c1ccccc1N)C(=O)N[C@@H](CC(=O)O)C(=O)N[C@@H](Cc1ccc(O)c([N+](=O)[O-])c1)C(N)=O (H-[2Abz]AAVD[Tyr(3-NO2)]-NH2) :: 18.3
5) CSCC[C@H](NC(=O)CNC(=O)[C@H](C)NC(=O)[C@H](CO)NC(=O)c1ccccc1N)C(=O)N[C@@H](Cc1ccc(O)c([N+](=O)[O-])c1)C(N)=O (H-[2Abz]SAGM[Tyr(3-NO2)]-NH2) :: 3.44

* * *

In this section we review reported Km values for a set of molecules.
- Tested on: dengue virus type 1
- assay: Activity of dengue virus 1 recombinant NS3 protease expressed in Escherichia coli C41(DE3) by fluorogenic assay
Non-standard residues stand in square brackets, D forms with d. Residues, ends and D or L forms follow the SMILES beside them. Tyr(3-NO2) = N[C@@H](Cc1ccc(O)c([N+](=O)[O-])c1)C(=O)O; 2Abz = Nc1ccccc1C(=O)O
property measured: Km

1. CC(C)C[C@H](NC(=O)[C@@H]1CCCN1C(=O)[C@H](Cc1c[nH]c2ccccc12)NC(=O)[C@H](CO)NC(=O)c1ccccc1N)C(=O)N[C@@H](Cc1ccc(O)c([N+](=O)[O-])c1)C(N)=O (H-[2Abz]SWPL[Tyr(3-NO2)]-NH2) :: 12.6 µM
2. CC(C)C[C@H](NC(=O)[C@@H](NC(=O)CNC(=O)[C@H](C)NC(=O)c1ccccc1N)C(C)C)C(=O)N[C@@H](Cc1ccc(O)c([N+](=O)[O-])c1)C(N)=O (H-[2Abz]AGVL[Tyr(3-NO2)]-NH2) :: 23.9 µM
3. NC(=O)[C@H](Cc1ccc(O)c([N+](=O)[O-])c1)NC(=O)[C@H](CS)NC(=O)[C@@H]1CCCN1C(=O)[C@H](CC(=O)O)NC(=O)CNC(=O)c1ccccc1N (H-[2Abz]GDPC[Tyr(3-NO2)]-NH2) :: 31.9 µM
4. C[C@H](NC(=O)[C@H](CC(N)=O)NC(=O)c1ccccc1N)C(=O)N[C@@H](CS)C(=O)N[C@@H](CS)C(=O)N[C@@H](Cc1ccc(O)c([N+](=O)[O-])c1)C(N)=O (H-[2Abz]NACC[Tyr(3-NO2)]-NH2) :: 8.81 µM
